Source: ChEMBL document CHEMBL4138250

test system: Influenza A virus; assay: Antiviral activity against Influenza A virus (A/Puerto Rico/8/34(H1N1)) infected in A549 cells assessed as reduction in viral titer after 24 to 48 hrs by hemagglutination test; format: functional, organism-based; conditions: A/Puerto Rico/8/1934(H1N1)
property_name: IC50

### Prompt # return recorded IC50 for input `O=c1ccc2ccc(O)cc2o1`
### Response 110 µg/mL

### Prompt # return recorded IC50 for input `O=c1ccc2ccc(O)c(O)c2o1`
### Response 146 µg/mL

### Prompt # return recorded IC50 for input `Nc1ccc2c(C(F)(F)F)cc(=O)oc2c1`
### Response 51 µg/mL

### Prompt # return recorded IC50 for input `O=c1ccc2c(O)c(O)ccc2o1`
### Response 106 µg/mL

### Prompt # return recorded IC50 for input O=c1ccc2cc(O)ccc2o1 [6-HYDROXYCOUMARIN]
### Response 110 µg/mL

### Prompt # return recorded IC50 for input `Nc1ccc2c(C(F)(F)F)cc(=O)oc2c1O`
### Response 47.8 µg/mL

### Prompt # return recorded IC50 for input `O=c1ccc2c(O)c(O)c(O)cc2o1`
### Response 47.9 µg/mL

### Prompt # return recorded IC50 for input `O=c1ccc2cc(O)c(O)c(O)c2o1`
### Response 69.9 µg/mL

### Prompt # return recorded IC50 for input `Cc1cc(=O)oc2c(O)c(O)ccc12`
### Response 91.5 µg/mL
